These data points were gathered from PubChem BioAssay.

# measurementProtocol: sensitizers of A549 cells to miR-34 induction, primary screen, imaging, A549 dox-inducible miR-34, nuclei and caspase counts (AID 1347080)
# experimentalSetup: A549 miR-34 inducible, Hoechst nuclei count, 48 h; measured here: total cells with miR-34 induction; stronger effect = lower value
Square brackets hold non-standard residues; d marks the D form. Side chains are listed from the residue outwards. Peptide text beside a SMILES is read from it. * marks the point of attachment. X2 = CCC(C)C(N)C1=NC(C(=O)*)CS1; Orn = NCCC[CH](N)C(=O)O
recordedMetric: cell count
The answer should be written as a number, with no unit following it.

Any idea what cell count was measured for CCC(C)C(N)C1=NC(C(=O)NC(CC(C)C)C(=O)NC(CCC(=O)O)C(=O)NC(C(=O)NCCCCC2NC(=O)C(CC(N)=O)NC(=O)C(CC(=O)O)NC(=O)C(Cc3cnc[nH]3)NC(=O)C(Cc3ccccc3)NC(=O)C(C(C)CC)NC(=O)C(CCCN)NC2=O)C(C)CC)CS1 (stereo not drawn) (cyclo(DNK([Ile-Glu-Leu-X2])[Orn]IFH); configuration not given here) ?
10300

What about this molecule? Nc1nc(N)c2nc(CNc3ccc(C(=O)NC(CCC(=O)O)C(=O)O)cc3)cnc2n1 (stereo not drawn)
2740

Next molecule: CCCN1CC(CSC)CC2c3cccc4[nH]cc(c34)CC21 (stereo not drawn)
9040

----------
# measurementProtocol: Cy5 fluorescence interference with SSB-bound oligo, artefact control for HCV NS3 helicase inhibitor project, biochemical, NIH Clinical Collection, E. coli SSB (AID 743268)
recordedMetric: fluorescence ratio
Please state the value as a number alone, without comment.

For O=C(O[C@H]1[C@H](Oc2ccccc2COC(=O)C2(O)C=CCCC2=O)O[C@H](CO)[C@@H](O)[C@@H]1O)c1ccccc1 (stereo partly specified) , what is its reported fluorescence ratio?
1

Request: CC1(C)SC2C(NC(=O)Cc3ccccc3)C(=O)N2C1C(=O)O (stereo unspecified)
1.02

Please do the same for "CC(C)(C)NC(=O)[C@@H]1C[C@@H]2CCCC[C@@H]2CN1C[C@@H](O)[C@H](Cc1ccccc1)NC(=O)[C@H](CC(N)=O)NC(=O)c1ccc2ccccc2n1" as well.
1.02

What do you have for NC(Cc1cc(I)c(Oc2ccc(O)c(I)c2)c(I)c1)C(=O)O (stereo unspecified) ?
0.99

How about this compound: "COc1cc(N)c(Cl)cc1C(=O)N[C@@H]1CCN(CCCOc2ccc(F)cc2)C[C@@H]1OC"
1

For "C=C1/C(=C\C=C2/CCC[C@]3(C)[C@@H]([C@H](C)/C=C/[C@@H](O)C4CC4)CC[C@@H]23)C[C@@H](O)C[C@@H]1O" then?
0.98

----------
# measurementProtocol: differential killing of epithelial or mesenchymal cells, primary screen, imaging, PC-3E GFP, TEM4-18 mCherry, co-culture (AID 1345086);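 note: cells exposed to compound for 72 h before imaging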
# experimentalSetup: imaging cell counts, measured here: epithelial PC-3E GFP cell survival, at 1 µM
Give measured normalised cell number for each item. Keep answers brief.
Could you respond with only the numeric value?

Item under review: C[C@]12CCc3occc3C1CC[C@@]13C[C@@H](CCC12)[C@@](O)(CO)C3 (stereo not given in full) . Reported normalised cell number?
0.94

Record: "CCN(CC)CCOCCOC(=O)C(CC)(CC)c1ccccc1"
0.85

Same question, NC[C@H]1O[C@H](OC2[C@@H](N)C[C@@H](N)[C@H](O[C@H]3O[C@H](CO)[C@@H](O)[C@H](N)[C@H]3O)[C@H]2O)[C@H](O)[C@@H](O)[C@@H]1O (stereo not given in full) this time
0.64

Same read-out for O=c1c(-c2ccc(O)cc2)coc2c(C3O[C@H](CO)[C@@H](O)[C@H](O)[C@H]3O)c(O)ccc12 (stereo not given in full) ?
1.12

What do you have for COc1cc(C(O)CO)oc1C=O (stereo not given) ?
1.08

// query: "CCCc1nc(C(C)(C)O)c(C(=O)O)n1Cc1ccc(-c2ccccc2-c2nn[nH]n2)cc1"
1.21

Now try CC(=O)O[C@]1(C(C)=O)CCC2C3C=C(Cl)C4=CC(=O)CC[C@]4(C)C3CC[C@@]21C (stereo not given in full) .
1.04

And what about the molecule "O=C1C[C@@H]2[C@H](Br)[C@@H](O)C[C@@H]2O1" ?
1.24

Nc1ccn(C2CSC(CO)O2)c(=O)n1 (stereo not given) ?
1.14

Consider next the molecule "N[C@@H](CC(=O)N1CCn2c(nnc2C(F)(F)F)C1)Cc1cc(F)c(F)cc1F" in the same way.
0.94
